Entries and their EC50 values follow.
System: THP-1 cells
Test: Measurement of IL-1β production, hTRF protocol (second alternative procedure), THP-1 cells
Assay type: cell-based, human
Settings: Homo sapiens, THP-1, IL-1β production, human; read-out: NLRP3 hILIB EC50
Enter your answer as a number in µM; do not include the unit.

Some molecules with recorded EC50:
CC(Cn1cc2c(N)nc3cc(-c4ccn[nH]4)ccc3c2n1)NC(=O)C(C)(C)C#N (centres unmarked) | 5.18
Nc1nc2cc(-c3cc[nH]n3)ccc2c2nn(CC(O)CF)cc12 (single isomer, unassigned) | 0.4
Nc1nc2cc(-c3cc[nH]n3)ccc2c2cn(CCNC(=O)CO)nc12 | 20.7
CNCCn1cc2c(N)nc3cc(-c4ccn[nH]4)ccc3c2n1 | 2.33
COCCn1ncc2c(N)nc3cc(-c4cc[nH]n4)ccc3c21 | 0.49

Q: Tell me the measured EC50 of CCN1CCOCC1Cn1cc2c(N)nc3cc(-c4ccn[nH]4)ccc3c2n1 (centres unmarked) , please.
Ans: 1.66

Q: Tell me the measured EC50 of Nc1nc2cc(-c3cc[nH]n3)ccc2c2cn(CCNc3ccccn3)nc12 , please.
Ans: 0.22

Q: Tell me the measured EC50 of Nc1nc2cc(-n3cccn3)ccc2c2nn(C[C@@H](O)CO)cc12 , please.
Ans: 0.91

Q: Tell me the measured EC50 of Nc1nc2cc(-c3cc[nH]n3)ccc2c2nn(CCNC(=O)C3CCCCO3)cc12 (centres unmarked) , please.
Ans: 4.44

Q: Tell me the measured EC50 of COCC(=O)NC(C)Cn1cc2c(N)nc3cc(-c4ccn[nH]4)ccc3c2n1 (centres unmarked) , please.
Ans: 1.7

Q: Tell me the measured EC50 of Nc1nc2cc(-c3ccn[nH]3)ccc2c2nn(CC3COCCN3)cc12 (centres unmarked) , please.
Ans: 10.9

Q: Tell me the measured EC50 of Nc1nc2cc(-c3cc[nH]n3)ccc2c2c1cnn2CCCO , please.
Ans: 3.04

Q: Tell me the measured EC50 of CC(=O)NCCCn1cc2c(n1)c(N)nc1cc(-c3cc[nH]n3)ccc12 , please.
Ans: 5.34

Q: Tell me the measured EC50 of Nc1nc2cc(-c3cc[nH]n3)ccc2c2cn(CCc3ccccn3)nc12 , please.
Ans: 0.06

Q: Tell me the measured EC50 of CC(=O)NCCCc1nc2c(N)nc3cc(-c4ccn[nH]4)ccc3c2s1 , please.
Ans: 7.8

Q: Tell me the measured EC50 of Nc1nc2cc(-c3cc[nH]n3)ccc2c2nn(Cc3cn[nH]c3)cc12 , please.
Ans: 0.18

Q: Tell me the measured EC50 of CC(CCO)n1cc2c(N)nc3cc(-c4ccn[nH]4)ccc3c2n1 (centres unmarked) , please.
Ans: 0.24

Q: Tell me the measured EC50 of Nc1nc2cc(-c3cc[nH]n3)ccc2c2nn(C[C@@H]3C[C@H](O)CN3)cc12 , please.
Ans: 5.39

Q: Tell me the measured EC50 of N#CC[C@@H](O)Cn1cc2c(N)nc3cc(-c4cc[nH]n4)ccc3c2n1 , please.
Ans: 0.74

Q: Tell me the measured EC50 of Nc1nc2cc(-c3cc[nH]n3)ccc2c2cn(CCCN3CCOCC3)nc12 , please.
Ans: 0.43

Q: Tell me the measured EC50 of Nc1nc2cc(-c3cc[nH]n3)ccc2c2cn(CCNC(=O)c3cc(Cl)ccn3)nc12 , please.
Ans: 0.12

Q: Tell me the measured EC50 of Nc1nc2cc(-c3cc[nH]n3)ccc2c2nn(Cc3cscn3)cc12 , please.
Ans: 0.07

Source listed as patent US12037344B2.
